Numbers sourced from PubChem BioAssay (EPA / NIEHS).

Read-out: sulfotransferase (SULT2A), SULT2A1 (gene 6822)
Experiment: CLD_SULT2A_6hr: CellzDirect (CLD) Gene Expression Assay for sulfotransferase (SULT2A) at 6 hours (AID 2283669);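 also: hits raise transcript level above the DMSO vehicle baseline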
Results filed as inconclusive are left out. The source made the active and inactive calls. The calls were made as follows: active = hit-call score of the fitted dose curve at least 0.9, where 1 is the maximum; inconclusive = response in the unintended direction; inactive = score below 0.9.
Outcome (select one): label 1 = active, label 0 = inactive

**Query** # fetch the recorded call for "CCCCOCN(C(=O)CCl)c1c(CC)cccc1CC" here
**Result** label 1

**Query** # fetch the recorded call for CC(C)(C)C(=O)C(Oc1ccc(Cl)cc1)n1cncn1 (configuration not stated) here
**Result** label 0

**Query** # fetch the recorded call for "COC(=O)NS(=O)(=O)c1ccc(N)cc1" here
**Result** label 0

**Query** # fetch the recorded call for CCC(C)n1c(=O)[nH]c(C)c(Br)c1=O (configuration not stated) here
**Result** label 0

**Query** # fetch the recorded call for "CCOP(=O)(OCC)Oc1nc(Cl)c(Cl)cc1Cl" here
**Result** label 0

**Query** # fetch the recorded call for "COC(=O)NC(=S)Nc1ccccc1NC(=S)NC(=O)OC" here
**Result** label 0

**Query** # fetch the recorded call for CCN(CC)C(=O)C(C)Oc1cccc2ccccc12 (configuration not stated) here
**Result** label 0
